Reference for the values: paper PMC10786919

Test system: HCT116 cells
Experimental Details: Lactate dehydrogenase (LDH) release assay
Assay type: cell-based
Experimental Context: 0% FBS 4Hr
Property Name: LDH: Cytotoxicity assay: % Effect (%)
Write the value in % as a bare number.

I have this compound here, "CC(=O)N[C@@H](CCCCN=[N+]=[N-])C(=O)NCCC(=O)N[C@@H](CC(C)C)C(=O)N[C@H](C(=O)N[C@@H](Cc1ccccc1)C(=O)N[C@]1(C)CCCCC#CC#CCCC[C@@](C)(C(=O)N[C@@H](C)C(=O)N[C@@H](C)C(=O)N[C@@H](C)C(=O)N[C@@H](C)C(=O)N[C@@H](C)C(=O)N[C@H](C)C(N)=O)NC(=O)[C@H](CC2CCC2)NC(=O)[C@H](CCC(N)=O)NC(=O)[C@H](C)NC(=O)[C@H](Cc2c[nH]c3ccccc23)NC(=O)[C@H](Cc2ccc(O)cc2)NC(=O)[C@H](CCC(=O)O)NC1=O)[C@@H](C)O" , and I need its recorded LDH: Cytotoxicity assay: % Effect.
12.87
